molecular target: Avi-KRAS G12V (1-169) GppNHp/RAF1 RBD-3xFLAG (52-151) (Homo sapiens, UniProt P01116, G12V); construct: Avi-KRAS G12V (1-169); assay: Raf1-KRAS G12V-GppNHP disruption HTRF assay (Biological Example 1); type: binding; conditions: KRAS G12V, GppNHp-loaded; Table 11
Sequence (P01116 1-169 isoform P01116-2 G12V): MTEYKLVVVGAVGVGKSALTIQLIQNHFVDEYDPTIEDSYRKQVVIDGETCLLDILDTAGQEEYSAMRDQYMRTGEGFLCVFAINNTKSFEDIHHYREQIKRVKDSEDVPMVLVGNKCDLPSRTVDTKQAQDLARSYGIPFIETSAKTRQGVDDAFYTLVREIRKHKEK
# IC50 annotations

See these solved cases before continuing.
>>> observed_measurement("Nc1nc2c(-c3c(C(F)(F)F)cc4c(N[C@H]5C[C@@H](O)C5)nc(OCC56CCCN5CCC6)nc4c3F)ccc(F)c2s1 (atropisomer, axis not shown)")
"> 10000 nM"
>>> observed_measurement("N#Cc1c(N)sc2c(F)ccc(-c3c(C(F)(F)F)cc4c(N5CC[C@@H]5CF)nc(OC[C@@]56CCCN5C[C@H](F)C6)nc4c3F)c12")
"100 to 1000 nM"
>>> observed_measurement("CN(c1nc(OCC2(CN3CCOCC3)CC2)nc2c(F)c(-c3ccc(F)c4sc(N)nc34)c(C(F)(F)F)cc12)[C@H]1C[C@@H](O)C1 (atropisomer, axis not shown)")
"1000 to 10000 nM"
>>> observed_measurement("CC(=O)N1CCN(c2nc(OC[C@@]34CCCN3C[C@H](F)C4)nc3c(F)c(-c4ccc(F)c5sc(N)c(C#N)c45)c(C(F)(F)F)cc23)C[C@H]1CC#N")
"> 10000 nM"
>>> observed_measurement("CN1CCN(c2nc(OC[C@@]34CCCN3C[C@H](F)C4)nc3c(F)c(-c4ccc(F)c5sc(N)c(C#N)c45)c(C(F)(F)F)cc23)CC1=O")
"1000 to 10000 nM"

IC50 reading for `CN(c1nc(OC[C@@]23CCCN2C[C@H](F)C3)nc2c(F)c(-c3ccc(F)c4sc(N)c(C#N)c34)c(C(F)(F)F)cc12)C1CCOCC1` : 1000 to 10000 nM

IC50 reading for CN(c1nc(OC[C@@]23CCCN2C[C@H](F)C3)nc2c(F)c(-c3ccc(F)c4sc(N)c(C#N)c34)c(C(F)(F)F)cc12)[C@H]1C[C@@H](O)C1 [Compound 19] : < 100 nM

IC50 reading for `CN(C[C@@H](F)CO)c1nc(OC[C@@]23CCCN2C[C@H](F)C3)nc2c(F)c(-c3ccc(F)c4sc(N)c(C#N)c34)c(C(F)(F)F)cc12` : 100 to 1000 nM

IC50 reading for `C[C@@H]1COCCN1c1nc(OC[C@@]23CCCN2C[C@H](F)C3)nc2c(F)c(-c3ccc(F)c4sc(N)c(C#N)c34)c(C(F)(F)F)cc12` : 1000 to 10000 nM

IC50 reading for Nc1nc2c(-c3c(C(F)(F)F)cc4c(N5CC6CCC(C5)C6O)nc(OCC56CCCN5CCC6)nc4c3F)ccc(F)c2s1 (centres unmarked) : 1000 to 10000 nM

IC50 reading for `N#Cc1c(N)sc2c(F)ccc(-c3c(C(F)(F)F)cc4c(N5C[C@H](F)[C@@H](F)C5)nc(OC[C@@]56CCCN5C[C@H](F)C6)nc4c3F)c12` : 100 to 1000 nM
